# System Under Test: CB1 (Homo sapiens, UniProt P21554)
# Sequence (P21554 whole entry, species assumed): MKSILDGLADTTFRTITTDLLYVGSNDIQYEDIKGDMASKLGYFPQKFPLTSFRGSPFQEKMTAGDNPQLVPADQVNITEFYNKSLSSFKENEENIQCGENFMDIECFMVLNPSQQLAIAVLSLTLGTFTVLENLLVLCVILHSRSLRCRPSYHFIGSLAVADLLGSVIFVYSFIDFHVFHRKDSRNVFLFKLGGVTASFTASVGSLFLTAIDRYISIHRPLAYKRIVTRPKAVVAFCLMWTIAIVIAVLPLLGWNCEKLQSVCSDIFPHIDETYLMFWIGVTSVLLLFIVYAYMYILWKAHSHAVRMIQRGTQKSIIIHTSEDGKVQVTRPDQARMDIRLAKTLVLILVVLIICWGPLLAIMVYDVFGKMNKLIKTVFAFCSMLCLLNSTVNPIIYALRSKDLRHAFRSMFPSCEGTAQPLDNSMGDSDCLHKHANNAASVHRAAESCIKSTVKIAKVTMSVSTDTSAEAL
Endpoint: Ki

Look up and state reported Ki for Cc1c(C(=O)NCC2CCC(CNS(C)(=O)=O)CC2)nn(-c2ccc(Cl)cc2Cl)c1-c1ccc(Cl)cc1 (stereo not shown)
~10 nM

###

# System Under Test: CB1 (Homo sapiens, UniProt P21554)
# Format: cell-based
Endpoint: Kb

Answer with Kb of Cc1c(C(=O)N[C@H]2CC[C@H](NS(N)(=O)=O)CC2)nn(-c2ccc(Cl)cc2Cl)c1-c1ccc(Cl)cc1 [Compound 18] measured for CB1 (Homo sapiens, UniProt P21554).
9.43 µM

Recall the reported Kb of Cc1c(C(=O)Nc2ccncc2)nn(-c2ccc(Cl)cc2Cl)c1-c1ccc(Cl)cc1 [Compound 5] on CB1 (Homo sapiens, UniProt P21554) and write it down.
0.117 µM

Provide measured Kb on CB1 (Homo sapiens, UniProt P21554) for Cc1ccc(NC(=O)c2nn(-c3ccc(Cl)cc3Cl)c(-c3ccc(Cl)cc3)c2C)nc1 [Compound 11] please.
0.98 µM

Send back CB1 (Homo sapiens, UniProt P21554) Kb of Cc1ccc(NC(=O)c2nn(-c3ccc(Cl)cc3Cl)c(-c3ccc(Cl)cc3)c2C)[n+](C)c1 [Compound 12] only.
8.59 µM

Name the value of Kb reported for Cc1c(C(=O)Nc2ccc(C)[n+](C)c2)nn(-c2ccc(Cl)cc2Cl)c1-c1ccc(Cl)cc1 [Compound 9] when tested on CB1 (Homo sapiens, UniProt P21554).
8.41 µM

For CB1 (Homo sapiens, UniProt P21554), give the measured Kb of the entry Cc1c(C(=O)Nc2cc[n+]([O-])cc2)nn(-c2ccc(Cl)cc2Cl)c1-c1ccc(Cl)cc1 [Compound 7]
1.39 µM

# lookup: CB1 (Homo sapiens, UniProt P21554) Kb, key = Cc1c(C(=O)NCC2CCC(CN)CC2)nn(-c2ccc(Cl)cc2Cl)c1-c1ccc(Cl)cc1 (centres unmarked) [Compound 19]
3.76 µM

Provide measured Kb on CB1 (Homo sapiens, UniProt P21554) for Cc1c(C(=O)Nc2cc[n+](C)cc2)nn(-c2ccc(Cl)cc2Cl)c1-c1ccc(Cl)cc1 [Compound 6] please.
> 10 µM

Fill in: Kb on CB1 (Homo sapiens, UniProt P21554), entry Cc1ccc(NC(=O)c2nn(-c3ccc(Cl)cc3Cl)c(-c3ccc(Cl)cc3)c2C)cn1 [Compound 8]
0.384 µM

Quote Kb with test system CB1 (Homo sapiens, UniProt P21554) for Cc1ccc(NC(=O)c2nn(-c3ccc(Cl)cc3Cl)c(-c3ccc(Cl)cc3)c2C)[n+]([O-])c1 [Compound 13]
4.58 µM

GET Kb where system = CB1 (Homo sapiens, UniProt P21554) and item = Cc1c(C(=O)Nc2ccc(C)[n+]([O-])c2)nn(-c2ccc(Cl)cc2Cl)c1-c1ccc(Cl)cc1 [Compound 10]
1.2 µM
